Items are presented alongside their recorded differential viability (reversal).
Experiment: reversal of MRP1-mediated doxorubicin resistance, pilot screen, H69AR cells, doxorubicin co-treatment (AID 601)
Details: H69AR cells + 2 uM doxorubicin, CellTiter-Glo, 72 h; at 10 µM; active compounds read high
Please state the figure in %; there is no need to write the unit.

Please review the entries below; each comes with its answer.
MOLECULE: CCCCCCC(c1c(C)n(C)n(-c2ccccc2)c1=O)c1c(C)n(C)n(-c2ccccc2)c1=O
EXPERIMENTAL_VALUE: 2.09

MOLECULE: O=C(CCn1c(=O)c2sccc2n(CC(=O)NCc2ccco2)c1=O)NCc1ccccc1
EXPERIMENTAL_VALUE: 4.46

MOLECULE: CCC12CN3CC(CC)(CN(C1)C3c1ccc(OC(C)C)cc1)C2=O (configuration not stated)
EXPERIMENTAL_VALUE: 10.7

MOLECULE: CC(C)c1ccc(NC(=O)C2CC(=O)N(C(C)C)C2)cc1 (configuration not stated)
EXPERIMENTAL_VALUE: 3.6

MOLECULE: CCc1ccc(NC(=O)c2cccnc2)cc1
EXPERIMENTAL_VALUE: 23.7

MOLECULE: N#CC1=C(N)N(c2ccc(Oc3ccccc3)cc2)C(=O)C1
EXPERIMENTAL_VALUE: 8.2

Entry `CCOC(=O)c1sc2nc(N3CCCC3)c3c(c2c1N)CC(C)(C)OC3` has what differential viability (reversal)?
-12.8

* * *

Test: SK-BR-3 cell growth inhibitors, pilot screen, 24 h, human (AID 572);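 note: compound exposure lasted between 18 and 24 h rather than exactly 24 h; 100% = carrier-treated control wells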
Conditions: SK-BR-3 viability, CellTiter-Glo luminescence, at 10 µM, active compounds read low
Active and inactive are the calls of the source.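 How the source made its calls: active means viability at or below 10% of carrier control in both of two separate runs; inconclusive means viability at or below 10% in only one of the two runs; inactive means the rest.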
Consider the following molecules and their measured viability readings.

Below, 3 molecules whose answers are already recorded.
MOLECULE: CCCC1Cc2c(sc3ncnc(N)c23)CO1 (stereo not given)
viability: 111% (inactive)
//
MOLECULE: CCOc1ccccc1N(C(=O)c1ccco1)C(C(=O)NC1CCCC1)c1cccnc1 (stereo not given)
viability: 84% (inactive)
//
MOLECULE: Cc1ccc(S(=O)(=O)NC(C)C(=O)Nc2ccc(C(N)=O)cc2)cc1 (stereo not given)
viability: 81% (inactive)

Data request, read-out viability, for `O=C1COc2ccc(C(=O)COC(=O)CCc3ccc(S(=O)(=O)N4CCOCC4)cc3)cc2N1`
105% (inactive)

Now consider `Cc1[nH]c(C(=O)N2CCCCC2)c(C)c1C(=O)NC1CCCCC1` and answer again.
88% (inactive)

* * *

Listing of recorded inhibition by entry.
Experiment: 384-well plate pilot, post-Golgi transport modulator project, inhibition of yeast transport mutant growth (AID 636)
Conditions: absorbance 615 nm, about 18 h, active compounds read high
Numbers only; they are read as %.

COMPOUND: O=C(CN1C(=O)CC(c2ccccc2)=Nc2ccccc21)NCc1ccco1
MEASUREMENT_KIND: inhibition
EXPERIMENTAL_VALUE: -1.82
//
COMPOUND: COCCCN(Cc1ccccn1)S(=O)(=O)Cc1ccccc1
MEASUREMENT_KIND: inhibition
EXPERIMENTAL_VALUE: -4.11
//
COMPOUND: CCOC(=O)Nc1ccc2c(c1)N(C(=O)CCN1CCOCC1)c1ccccc1S2
MEASUREMENT_KIND: inhibition
EXPERIMENTAL_VALUE: -5.07
//
COMPOUND: CCOC(=O)N1CCC(NC(=O)Cn2ncc3c4ccccc4n(C)c3c2=O)CC1
MEASUREMENT_KIND: inhibition
EXPERIMENTAL_VALUE: -7.43
//
COMPOUND: CCOC(=O)c1cc(-c2ccccc2)sc1N
MEASUREMENT_KIND: inhibition
EXPERIMENTAL_VALUE: -6

Request the reported inhibition associated with `Cc1cccc(N(C)C(=O)c2coc(=O)c3ccccc23)c1`
-3.16

Follow-up entry: CCc1ccc(NC(=O)CS(=O)CC(=O)NCC2OCCc3ccccc32)cc1 (stereo not given)
-0.93

What about this compound? `O=C(Nc1ccc2oc(=O)ccc2c1)c1cccnc1`
-4.38

And what about the compound CCOC(=O)C1(c2ccccc2)NC(c2ccc(N(C)C)cc2)C2C(=O)N(C)C(=O)C21 (stereo not given) ?
-8.11

Same lookup for `CCc1nnc(NC(=O)CSc2nnc(-c3ccccc3OC)n2-c2ccccc2)s1` , please.
-1.73

Also check `CN(Cc1ccccc1)C(=O)c1cc(-c2ccc(Br)cc2)on1`
-4

Let us now turn to `CCCn1cnc2c(cnn2-c2ccc(F)cc2)c1=O`
-0.78

Now consider `Cc1cc(C)n(C(=O)C23CC4CC(CC(C4)C2)C3)n1` and answer again.
-8.36

// repeat for `COCC(=O)N(C)c1nnc(-c2ccccn2)s1` and report
-2.57
